Data origin, for the record: ChEMBL document CHEMBL4627310

- System: A549
- assay_overview: Antiproliferative activity against human A549 cells assessed as cell growth inhibition measured after 48 hrs by MTT assay
- Format: functional, cell-based
- recorded_conditions: A549, 48 h
Consider the cut-off 30 µM. If the recorded IC50 is strictly smaller, the label is condition met; if not, the label is condition not met.

Inquiry: # check: IC50 < 30 µM for O=C1c2cccc3cc([N+](=O)[O-])cc(c23)C(=O)N1c1nc2ccccc2[nH]1
Reply text: condition not met

Inquiry: Now give it for O=C1c2cccc3cc([N+](=O)[O-])cc(c23)C(=O)N1c1ccc2[nH]c(=O)[nH]c2c1 too.
Reply text: condition not met

Inquiry: Now give it for CNCCN1C(=O)c2cccc3cc([N+](=O)[O-])cc(c23)C1=O too.
Reply text: condition met

Inquiry: Now give it for CNCCCN1C(=O)c2cccc3cc([N+](=O)[O-])cc(c23)C1=O too.
Reply text: condition met

Inquiry: Now give it for O=C1c2cccc3cc([N+](=O)[O-])cc(c23)C(=O)N1Nc1nc2ccccc2s1 too.
Reply text: condition not met

Inquiry: Now give it for O=C1c2cccc3cc([N+](=O)[O-])cc(c23)C(=O)N1Nc1ccccc1 too.
Reply text: condition not met

Inquiry: Now give it for CN(C)CCN1C(=O)c2cccc3cc([N+](=O)[O-])cc(c23)C1=O [MITONAFIDE] too.
Reply text: condition met

###

- System: SMMC-7721
- assay_overview: Antiproliferative activity against human SMMC7721 cells assessed as cell growth inhibition measured after 48 hrs by MTT assay
- Format: functional, cell-based
- recorded_conditions: SMMC-7721, 48 h
Can you tell me IC50 for the items I'm about to list?
Answer format: numeric, µM implied, no suffix.

Inquiry: What value of measured IC50 is listed for CN(C)CCN1C(=O)c2cccc3cc([N+](=O)[O-])cc(c23)C1=O [MITONAFIDE] ?
Reply text: 6.94

Inquiry: Now give it for CNCCN1C(=O)c2cccc3cc([N+](=O)[O-])cc(c23)C1=O too.
Reply text: 14

###

- Tested on: SMMC-7721
- assay_overview: Antiproliferative activity against human SMMC7721 cells assessed as cell growth inhibition measured after 48 hrs by MTT assay
- Format: functional, cell-based
- recorded_conditions: SMMC-7721, 48 h
Can you tell me IC50 for the items I'm about to list?

Inquiry: What value of measured IC50 is listed for O=C1c2cccc3cc([N+](=O)[O-])cc(c23)C(=O)N1Nc1nc2ccccc2s1 ?
Reply text: > 100 µM

Inquiry: Now give it for O=C1c2cccc3cc([N+](=O)[O-])cc(c23)C(=O)N1c1nc2ccccc2[nH]1 too.
Reply text: 54.1 µM

Inquiry: Now give it for O=C1c2cccc3cc([N+](=O)[O-])cc(c23)C(=O)N1c1ccc2[nH]c(=O)[nH]c2c1 too.
Reply text: 54.7 µM

Inquiry: Now give it for CNCCCN1C(=O)c2cccc3cc([N+](=O)[O-])cc(c23)C1=O too.
Reply text: 26.6 µM

Inquiry: Now give it for O=C1c2cccc3cc([N+](=O)[O-])cc(c23)C(=O)N1Nc1ccccc1 too.
Reply text: > 100 µM
